Molecular target: T1, HCV Core1-169 (HCV-1, UniProt P26664 1-169)
T1 construct: also called Solid Phase HCV Core
T1 sequence: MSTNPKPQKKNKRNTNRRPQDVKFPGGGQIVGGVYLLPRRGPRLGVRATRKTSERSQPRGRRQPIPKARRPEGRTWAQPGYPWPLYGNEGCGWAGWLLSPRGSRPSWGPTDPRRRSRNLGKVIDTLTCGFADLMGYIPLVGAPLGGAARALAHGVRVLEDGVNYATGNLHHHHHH
Test: sandwich EIA, capture 208A-110
value_kind: OD492 (OD)
The response must be a number in OD with no trailing unit.

Example entries begin here.
• HCV 208A-557 (antibody, V domains shown) VH: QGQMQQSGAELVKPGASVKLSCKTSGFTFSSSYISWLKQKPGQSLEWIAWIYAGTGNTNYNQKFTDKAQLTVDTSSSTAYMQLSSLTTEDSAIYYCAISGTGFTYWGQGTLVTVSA VL: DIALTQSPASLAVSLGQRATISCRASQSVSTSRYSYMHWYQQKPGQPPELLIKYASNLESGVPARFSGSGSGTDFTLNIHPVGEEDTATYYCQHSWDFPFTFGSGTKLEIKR = 0.44
• HCV 208B-395 (antibody, V domains shown) VH: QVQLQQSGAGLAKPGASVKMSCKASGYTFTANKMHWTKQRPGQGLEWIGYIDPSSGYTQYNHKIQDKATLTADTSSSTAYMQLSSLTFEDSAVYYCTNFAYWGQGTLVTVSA VL: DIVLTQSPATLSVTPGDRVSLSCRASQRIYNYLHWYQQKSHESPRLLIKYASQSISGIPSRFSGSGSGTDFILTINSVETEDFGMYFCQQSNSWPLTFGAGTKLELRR = 0.21
• HCV 208B-612 (antibody, V domains shown) VH: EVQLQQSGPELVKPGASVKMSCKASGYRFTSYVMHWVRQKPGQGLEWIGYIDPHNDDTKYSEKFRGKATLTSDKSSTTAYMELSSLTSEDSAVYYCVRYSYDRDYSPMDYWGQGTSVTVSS VL: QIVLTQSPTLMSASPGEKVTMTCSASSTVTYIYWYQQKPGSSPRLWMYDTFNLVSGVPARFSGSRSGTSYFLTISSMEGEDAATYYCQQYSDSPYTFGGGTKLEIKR = 0.26
• HCV 208A-207 (antibody, V domains shown) VH: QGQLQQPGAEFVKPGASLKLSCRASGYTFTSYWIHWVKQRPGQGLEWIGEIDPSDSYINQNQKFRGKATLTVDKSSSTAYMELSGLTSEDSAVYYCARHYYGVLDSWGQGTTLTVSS VL: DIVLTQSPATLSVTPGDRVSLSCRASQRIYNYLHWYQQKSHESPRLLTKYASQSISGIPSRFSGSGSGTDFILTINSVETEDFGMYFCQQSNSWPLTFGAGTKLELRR = 0.38
• HCV 208B-1096 (antibody, V domains shown) VH: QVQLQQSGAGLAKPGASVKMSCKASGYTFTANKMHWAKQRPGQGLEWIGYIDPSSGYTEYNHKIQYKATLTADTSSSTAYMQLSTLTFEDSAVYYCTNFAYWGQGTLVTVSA VL: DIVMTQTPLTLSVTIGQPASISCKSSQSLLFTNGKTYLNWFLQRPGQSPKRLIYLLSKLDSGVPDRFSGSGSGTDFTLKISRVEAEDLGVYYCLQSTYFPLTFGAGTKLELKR = 0.19
• HCV 208A-741 (antibody, V domains shown) VH: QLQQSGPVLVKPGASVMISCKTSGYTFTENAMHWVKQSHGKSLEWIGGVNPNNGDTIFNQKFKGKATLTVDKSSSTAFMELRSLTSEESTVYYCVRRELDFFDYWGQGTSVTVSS VL: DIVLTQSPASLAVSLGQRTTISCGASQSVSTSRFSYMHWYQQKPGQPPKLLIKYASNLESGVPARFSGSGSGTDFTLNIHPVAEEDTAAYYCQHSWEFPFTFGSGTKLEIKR = 0.42
• HCV 208A-692 (antibody, V domains shown) VH: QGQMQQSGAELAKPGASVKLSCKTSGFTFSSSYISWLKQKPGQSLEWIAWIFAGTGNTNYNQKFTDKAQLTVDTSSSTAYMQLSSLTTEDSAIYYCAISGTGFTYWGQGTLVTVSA VL: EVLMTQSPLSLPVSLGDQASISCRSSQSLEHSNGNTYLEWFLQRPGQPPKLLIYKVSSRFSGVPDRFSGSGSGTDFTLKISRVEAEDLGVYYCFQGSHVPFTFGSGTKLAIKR = 0.54

// switching to the query binder
input: Request the reported OD492 associated with HCV 208A-293 (antibody, V domains shown) VH: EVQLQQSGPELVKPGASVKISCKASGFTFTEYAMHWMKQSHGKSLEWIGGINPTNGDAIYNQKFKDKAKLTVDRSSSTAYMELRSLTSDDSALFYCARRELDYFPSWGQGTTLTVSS VL: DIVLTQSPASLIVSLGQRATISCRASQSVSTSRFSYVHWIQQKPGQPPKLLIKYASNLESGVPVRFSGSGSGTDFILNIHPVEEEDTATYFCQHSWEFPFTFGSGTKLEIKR
output: 0.52

Where these numbers come from: patent US9371374
